The origin of these recorded values is ChEMBL document CHEMBL5113522.

TEST NAME: Oral bioavailability in Beagle dog at 1 mg/kg by LC-MS analysis
Type: ADME, organism-based, Canis lupus familiaris
EXPERIMENTAL SETUP: in vivo
ENDPOINT LABEL: bioavailability (%)
Answer in %, number only, no unit symbol.

Input Cc1cc(C(=O)NC(C)(C)C)cc(C#Cc2ccc3c4c(oc3c2)C(C)(C)c2cc(NS(C)(=O)=O)ccc2C4=O)n1 , output reported bioavailability.
97.5

----------
ASSAY SYSTEM: BDNF/NT-3 growth factors receptor (Homo sapiens, UniProt Q16620)
Sequence (Q16620 whole entry): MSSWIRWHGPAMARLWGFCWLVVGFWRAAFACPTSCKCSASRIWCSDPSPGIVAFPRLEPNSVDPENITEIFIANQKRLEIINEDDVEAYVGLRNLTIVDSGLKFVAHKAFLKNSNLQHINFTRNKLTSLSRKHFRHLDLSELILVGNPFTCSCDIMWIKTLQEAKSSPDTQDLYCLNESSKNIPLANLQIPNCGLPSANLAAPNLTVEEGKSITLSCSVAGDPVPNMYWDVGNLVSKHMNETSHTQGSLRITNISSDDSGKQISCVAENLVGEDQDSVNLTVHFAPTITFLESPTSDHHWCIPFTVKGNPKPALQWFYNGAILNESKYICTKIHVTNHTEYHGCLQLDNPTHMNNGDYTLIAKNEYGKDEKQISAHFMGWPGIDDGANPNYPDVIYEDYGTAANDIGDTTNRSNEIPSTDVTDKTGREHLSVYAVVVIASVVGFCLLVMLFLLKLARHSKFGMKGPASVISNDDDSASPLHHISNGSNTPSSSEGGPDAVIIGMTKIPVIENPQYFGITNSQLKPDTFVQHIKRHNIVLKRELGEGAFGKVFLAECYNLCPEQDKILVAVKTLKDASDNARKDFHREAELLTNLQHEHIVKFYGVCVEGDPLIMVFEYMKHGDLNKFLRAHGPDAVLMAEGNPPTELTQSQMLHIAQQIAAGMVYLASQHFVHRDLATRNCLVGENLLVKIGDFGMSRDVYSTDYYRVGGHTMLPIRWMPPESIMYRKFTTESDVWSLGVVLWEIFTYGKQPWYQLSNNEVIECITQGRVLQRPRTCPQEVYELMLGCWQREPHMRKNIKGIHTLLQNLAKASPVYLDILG
ENDPOINT LABEL: IC50 (nM)
Answer in nM, number only, no unit symbol.

Input Cc1cc(C(=O)NC(C)(C)C)cc(C#Cc2ccc3c4c(oc3c2)C(C)(C)c2cc(NS(C)(=O)=O)ccc2C4=O)n1 , output reported IC50.
2
